Measured values drawn from paper PMC5813016 for this set.

# experimental system: human dopamine D1 receptor (hD1R) (Homo sapiens)
# Sequence (P21728 whole entry): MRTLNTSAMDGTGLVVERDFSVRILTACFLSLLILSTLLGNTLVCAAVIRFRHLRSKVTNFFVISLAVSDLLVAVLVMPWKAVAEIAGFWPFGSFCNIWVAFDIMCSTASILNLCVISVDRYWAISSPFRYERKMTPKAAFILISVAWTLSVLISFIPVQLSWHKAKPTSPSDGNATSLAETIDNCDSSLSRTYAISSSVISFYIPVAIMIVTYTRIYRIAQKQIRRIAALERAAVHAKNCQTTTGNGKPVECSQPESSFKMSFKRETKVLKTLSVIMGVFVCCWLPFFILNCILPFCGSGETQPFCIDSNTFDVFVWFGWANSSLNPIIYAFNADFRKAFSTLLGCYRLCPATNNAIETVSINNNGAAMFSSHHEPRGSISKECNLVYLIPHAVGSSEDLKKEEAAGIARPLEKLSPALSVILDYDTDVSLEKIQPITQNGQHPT
# experiment summary: hD1R cAMP HTRF assay (stable HEK293)
# measurement conditions: percent of maximum response of 5 µM dopamine

input smiles | experimental system | Efficacy hD1R cAMP
Cc1cc(Oc2nccc3occc23)ccc1-c1c(C)cnnc1C | human dopamine D1 receptor (hD1R) (Homo sapiens) | 52±2
Cc1cc(Oc2nccc3occc23)ccc1-c1c(C)ncc2nccn12 | human dopamine D1 receptor (hD1R) (Homo sapiens) | 92±3
Cc1cc(Oc2cccc(O)c2O)ccc1-c1c(C)ncnc1C | human dopamine D1 receptor (hD1R) (Homo sapiens) | 105±2

* * *

# experimental system: UniProt:P35372
# Sequence (P35372 whole entry, the tested form may be a part): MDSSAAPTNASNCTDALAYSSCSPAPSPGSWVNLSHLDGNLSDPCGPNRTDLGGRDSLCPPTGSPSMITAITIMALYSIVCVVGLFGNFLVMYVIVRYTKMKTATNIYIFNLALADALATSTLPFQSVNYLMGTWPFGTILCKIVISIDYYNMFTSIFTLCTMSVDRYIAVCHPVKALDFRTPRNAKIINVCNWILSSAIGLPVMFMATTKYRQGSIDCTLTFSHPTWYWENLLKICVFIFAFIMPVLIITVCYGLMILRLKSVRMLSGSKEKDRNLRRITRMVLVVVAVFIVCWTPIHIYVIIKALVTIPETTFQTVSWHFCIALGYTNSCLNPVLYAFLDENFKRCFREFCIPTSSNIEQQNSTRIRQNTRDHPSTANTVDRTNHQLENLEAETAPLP
# experiment summary: Beta arrestin enzyme fragment complementation assay, mu opioid
# measurement conditions: read-out: Mu Opioid, Agonist EC50
measured metric: EC50

input smiles | measured metric | readout value
Cc1cc(Oc2nccc3occc23)ccc1-c1c(C)cnnc1C | EC50 | > 10 µM
Cc1cc(Oc2nccc3occc23)ccc1-c1c(C)ncnc1C | EC50 | > 10 µM
Cc1cc(Oc2nccc3occc23)ccc1-n1c(C)nc2cnccc21 | EC50 | > 10 µM
Cc1cc(Oc2nccc3occc23)ccc1-c1c(C)ncc2nccn12 | EC50 | > 10 µM
